These entries and their values trace back to PubChem BioAssay AID2060903.

# Tested on: 377384-186-R-J1-PDC complex spheroid viability;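 note: spheroids exposed to compounds for seven days before readout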
# procedure.details: Anticancer human tumor 377384-186-R-J1-PDC patient-derived pancreatic carcinoma cell line growth inhibition [RAS]
# details: curve of first compound; second compound 0.00949 µM
assay.metric: IC50

Please review the entries below; each comes with its answer.
CC(C)NCC(C(=O)N1CCN(c2ncnc3c2C(C)CC3O)CC1)c1ccc(Cl)cc1 (stereo not drawn) + CCn1c(-c2cc(N3CCN(C)CC3)cnc2C(C)OC)c2c3cc(ccc31)-c1csc(n1)CC(NC(=O)C1CC1C)C(=O)N1CCCC(N1)C(=O)OCC(C)(C)C2    < 31.6 nM
CC(C)n1nc(-c2ccc3oc(N)nc3c2)c2c(N)ncnc21 + CCn1c(-c2cc(N3CCN(C)CC3)cnc2C(C)OC)c2c3cc(ccc31)-c1csc(n1)CC(NC(=O)C1CC1C)C(=O)N1CCCC(N1)C(=O)OCC(C)(C)C2    < 0.316 nM

Value lookup for IC50; key = CCc1c2c(nc3ccc(O)cc13)-c1cc3c(c(=O)n1C2)COC(=O)[C@]3(O)CC + CCn1c(-c2cccnc2C(C)OC)c2c3cc(ccc31)N1CCOC(CC(NC(=O)C(C(C)C)N(C)C(=O)C3(F)CCN(C(=O)C#CC(C)(C)N(C)C)CC3)C(=O)N3CCCC(N3)C(=O)OCC(C)(C)C2)C1
2 nM
